Origin of values: the supplement of paper PMC6089552

Tested on: A673/TR/shEF
Measurement Protocol: cell viability (LOESS-normalised, relative to median of negative controls) (log2 ratio); higher = more viable cells (less compound effect), active = hit call of the paper (over 3 MAD below the median)
Condition Label: 0.25 µM; library screen: screen1; EWS-FLI1 expression: high (no doxycycline); treatment time: 72 h
Out of some 3,200 compounds screened, about 300 (9.4%) showed activity. The full list was thinned out, with actives kept by preference.
Parameter: cell viability (log2). Scope: all listed entries.
Just the number.

>>> numeric_result("CC1(C)S[C@@H]2[C@H](NC(=O)[C@H](N)c3ccccc3)C(=O)N2[C@H]1C(=O)O")
0.0882
>>> numeric_result("CC1(C)COC(CC(=O)O)CN1 (centres undefined)")
0.11

Challenge: Entry CCOc1cc(C(=O)Nc2ccc([N+](=O)[O-])cc2)cc(OCC)c1OCC has what cell viability (log2)?
Response given: 0.054

Challenge: Entry CCc1c(C)c(C#N)c2nc3ccccc3n2c1N1CCN(C)CC1 has what cell viability (log2)?
Response given: 0.145

Challenge: Entry CC=C(C)C(=O)OC1Cc2c(ccc3ccc(=O)oc23)OC1(C)C (centres undefined) has what cell viability (log2)?
Response given: 0.052

----------
Tested on: A673/TR/shEF
Measurement Protocol: cell viability (LOESS-normalised, relative to median of negative controls) (log2 ratio); higher = more viable cells (less compound effect), active = hit call of the paper (over 3 MAD below the median)
Condition Label: 2.8 µM; library screen: screen3; EWS-FLI1 expression: low (doxycycline-induced shRNA knockdown); treatment time: 72 h
The whole screen tested about 3,200 compounds, of which about 300 (9.4%) showed activity. The entries come from a sample that favours actives as a whole.
So basically: is cell viability (log2) under 0.02? Then Met. Not under? Then Not met.

# example entries with known answers
>>> assigned_class("CC(=O)O[C@@]12CO[C@@H]1C[C@H](O)[C@@]1(C)C(=O)[C@H](O)C3=C(C)[C@@H](OC(=O)[C@H](O)[C@@H](NC(=O)OC(C)(C)C)c4ccccc4)C[C@@](O)([C@@H](OC(=O)c4ccccc4)[C@H]21)C3(C)C")
"Met"
>>> assigned_class("Cc1nnc(C(C)C)n1C1C[C@H]2CC[C@@H](C1)N2CC[C@H](NC(=O)C1CCC(F)(F)CC1)c1ccccc1 (stereo partly drawn)")
"Not met"
>>> assigned_class("CN1/C(=C(\\O)Nc2ccccn2)C(=O)c2ccccc2S1(=O)=O")
"Not met"

Challenge: Strictly below 0.02: is that where cell viability (log2) of O=C1[C@H](Cc2ccc(O)cc2)N2C(=O)CCN(C(=O)NCc3ccccc3)[C@H]2CN1Cc1cccc2ccccc12 sits?
Response given: Not met

Challenge: Strictly below 0.02: is that where cell viability (log2) of CC(=O)O[C@H]1C(=O)[C@@]2(C)[C@H]([C@H](OC(=O)c3ccccc3)[C@]3(O)C[C@H](OC(=O)[C@H](O)[C@@H](NC(=O)c4ccccc4)c4ccccc4)C(C)=C1C3(C)C)[C@]1(OC(C)=O)CO[C@@H]1C[C@@H]2O sits?
Response given: Met

Challenge: Strictly below 0.02: is that where cell viability (log2) of Cn1cncc1[C@@](N)(c1ccc(Cl)cc1)c1ccc2c(c1)c(-c1cccc(Cl)c1)cc(=O)n2C sits?
Response given: Met

Challenge: Strictly below 0.02: is that where cell viability (log2) of CCCS(=O)(=O)Nc1ccc(F)c(C(=O)c2c[nH]c3ncc(-c4ccc(Cl)cc4)cc23)c1F sits?
Response given: Not met

Challenge: Strictly below 0.02: is that where cell viability (log2) of CNC(=O)CN(CCN(CCN(CC(=O)[O-])CC(=O)NC)CC(=O)[O-])CC(=O)[O-].O.[Gd+3] sits?
Response given: Not met
